Recorded values, source PubChem BioAssay (NCI).

List of TGI values.
# System: NCI-H226 lung
# MEASUREMENT NOTES: NCI tumour cell line growth inhibition, 48 h

Field: example entries. Status: answers known.
COMPOUND | TGI
C=C(Cl)C(Cl)(CBr)CCCC(C)C (stereo unspecified) | > 100 µM
O=C1OC(=O)c2c1cc1cc3c(cc1c2-c1ccc2c(c1)OCO2)OCO3 | > 100 µM
O=C1/C(=C/c2ccc([N+](=O)[O-])s2)Oc2ccc(Br)cc21 | 2.84 µM

The value of TGI recorded for Clc1nc(NC23CC4CC(CC(C4)C2)C3)nc(NC23CC4CC(CC(C4)C2)C3)n1 when tested on NCI-H226 lung reads > 100 µM

The value of TGI recorded for CC(C)(C)c1ccc(OCCCCCCCN2CCNCC2)cc1 when tested on NCI-H226 lung reads 4.1 µM

The value of TGI recorded for CN(COC(=O)C(C)(C)C)c1nc(N(C)COC(=O)C(C)(C)C)nc(N(C)COC(=O)C(C)(C)C)n1 when tested on NCI-H226 lung reads > 100 µM

The value of TGI recorded for CN(C)Cc1cc(C(=O)/C=C/c2ccc(Cl)cc2Cl)cc(CN(C)C)c1O when tested on NCI-H226 lung reads 24 µM

The value of TGI recorded for C=CCN=C1NC(=O)C(CC(=O)Nc2ccc([N+](=O)[O-])cc2[N+](=O)[O-])S1 (stereo unspecified) when tested on NCI-H226 lung reads > 100 µM
